Would you kindly list pKd for each of these binders?
Molecular target: T1, PUF4 RNA-binding domain (Saccharomyces cerevisiae, UniProt P25339 537-888)
T1 sequence: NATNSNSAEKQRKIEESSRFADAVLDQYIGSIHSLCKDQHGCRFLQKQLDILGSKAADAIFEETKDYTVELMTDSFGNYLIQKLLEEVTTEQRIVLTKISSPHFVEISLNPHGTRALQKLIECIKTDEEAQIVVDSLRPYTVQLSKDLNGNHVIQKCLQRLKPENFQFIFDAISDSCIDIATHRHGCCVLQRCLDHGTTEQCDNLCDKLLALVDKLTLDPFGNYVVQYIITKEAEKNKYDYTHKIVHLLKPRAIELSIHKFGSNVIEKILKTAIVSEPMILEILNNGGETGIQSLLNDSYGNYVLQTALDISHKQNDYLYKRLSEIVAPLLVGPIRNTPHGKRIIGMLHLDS
Experiment: Mg; RNA-MaP; 20 mM Na-HEPES pH 7.4, 30 mM KOAc, 0.75 mM MgCl2, 0.1% Tween-20, 5% glycerol, 0.1 mg/mL BSA, 2 mM DTT; 25 C; 0.0125-409.6 nM protein
Settings: tags: N-His6-TEV cleaved; C-SNAP kept, Cy3B-labelled; label: tethered on chip by stalled RNA polymerase
One number for each entry, as −log10 of the molar value.

The following binders each have a reported value; give each one's pKd.
1. Id_ii_S2_P4E.4_K4.3_C4.2_[C-2T]_H4.3_A4.1_F4.1_T4.2_[G10A]_[T11C] (ssRNA) RNA: UUUGAUUAAUAUGAUAUCGUUCUUUCUUUACACUAUUAACUUCUUUCUCGAUAUCAUAUUAAUCUUU
2. UCUCUUUGUACCCAUCUCUCUU (ssRNA) [Ic_S1_P5E.1_K5.1_C5.1_H5.1_A5.1_[T5C]_[T6C]_[A7C]_F5.1_[T8A]_[A10C]_T5.1]
3. Ib_S2_P4E.1_K4.1_C4.1_H4.1_[T1A]_A4.1_[T7G]_F4.1_T4.1 (ssRNA) RNA: UUUGAUUAAUAUGAUAUCGUUCUUUCUAGUAUAGUAUUCUUUCUCGAUAUCAUAUUAAUCUUU
4. Id_ii_S2_P5E.2_K5.1_C5.2_[C-2T]_[T-1C]_H5.1_A5.1_F5.1_T5.2_[A12G] (ssRNA) RNA: UUUGAUUAAUAUGAUAUCGUUCUUUCUUCUGUAUUAUUAUGUUCUUUCUCGAUAUCAUAUUAAUCUUU
5. Id_iii_S4_P3E.7_K3.3_C3.3_[T-3A]_H3.3_A3.1_F3.1_T3.2 (ssRNA) RNA: UUUGACAACUGAUCGUUCUUUCUACUACACUAUAUAUUCUUUCUCGAUCAGUUGUCUUU

[out]
1: 6.52; 2: 6.22; 3: 6.26; 4: 8.52; 5: 6.44
